Where these numbers come from: patent EP4722243A1

Molecular target: T1, IL-11-mFc ligand protein (human, UniProt P20809 22-199)
T1 construct: The construct is not described; also called IL-11 ligand protein; not shown: mFc part (detected with goat anti-mouse IgG)
T1 sequence (looked up): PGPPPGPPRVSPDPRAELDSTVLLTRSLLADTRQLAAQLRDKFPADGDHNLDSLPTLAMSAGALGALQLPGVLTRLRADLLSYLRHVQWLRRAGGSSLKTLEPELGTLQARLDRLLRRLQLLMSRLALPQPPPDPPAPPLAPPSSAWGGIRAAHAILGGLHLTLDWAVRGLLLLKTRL
Assay: flow cytometry: inhibition of IL-11-mFc binding to IL-11RA on BaF/3-IL-11RA cells, goat anti-mouse IgG-FITC detection
A collection of binders and their measured IC50
Express it in µg/mL; write the number only.

Some binders with known IC50 results, for comparison:
binder | unit-name | IC50
humanized antibody molecule HA-I-B (antibody, human IgG1, kappa, L234A L235A, V domains shown) VH: QVQLVESGGGLVKPGGSLRLSCAASGFTFSDYYMFWVRQAPGKGLEWVSTISDGGTYTYYPDSVKGRFTISRDNAKNSLYLQMNSLRAEDTAVYYCARDGGYVSSPEAMDYWGQGTLVTVSS VL: DIVLTQSPSSLSASVGDRVTITCRASQDISNYLNWYQQKPGKAPKLLIYYTSRLHSGVPSRFSGSGSGTDYTFTISSLQPEDIATYYCQQGNTLPPTFGGGTKVEIKR | µg/mL | 3.58
humanized antibody molecule HA-I-A (antibody, human IgG1, kappa, L234A L235A, V domains shown, anti-IL-11 monoclonal antibody HA-I-A) VH: QVQLVESGGGLVKPGGSLRLSCAASGFTFSDYYMFWVRQAPGKGLEWVATISDGGTYTYYPDSVKGRFTISRDNAKNSLYLQMNSLRAEDTAVYYCARDGGYVSSPEAMDYWGQGTLVTVSS VL: DIVLTQSPSSLSASVGDRVTITCRASQDISNYLNWYQQKPGKAPKLLIYYTSRLHSGVPSRFSGSGSGTDFTFTISSLQPEDIATYYCQQGNTLPPTFGGGTKVEIKR | µg/mL | 1.68
humanized antibody molecule HA-I-C (antibody, human IgG1, kappa, L234A L235A, V domains shown) VH: QVQLVESGGGLVKPGGSLRLSCAASGFTFSDYYMFWVRQAPGKGLEWVATISDGGTYTYYPDSVKGRFTISRDNAKNSLYLQMNSLRAEDTAVYYCARDGGYVSSPEAMDYWGQGTLVTVSS VL: DIVLTQSPSSLSASVGDRVTITCRASQDISNYLNWYQQKPGKAVKLLIYYTSRLHSGVPSRFSGSGSGTDYTFTISSLQPEDIATYFCQQGNTLPPTFGGGTKVEIKR | µg/mL | 4.87

Now for the binder whose IC50 we want.
Lookup: State its IC50 for this binder: humanized antibody molecule HA-I-D (antibody, human IgG1, kappa, L234A L235A, V domains shown) VH: QVQLVESGGGLVKPGGSLRLSCAASGFTFSDYYMFWVRQAPGKGLEWVATISDGGTYTYYPDSVKGRFTISRDNAKNSLYLQMNSLRAEDTAMYYCARDGGYVSSPEAMDYWGQGTSVTVSS VL: DIVLTQSPSSLSASVGDRVTITCRASQDISNYLNWYQQKPGGAVKLLIYYTSRLHSGVPSRFSGSGSGTDYTFTISSLQPEDIATYFCQQGNTLPPTFGGGTKVEIKR
Found: 13.8
